Numbers sourced from PubChem BioAssay.

Give measured differential viability (reversal) for each item. Keep answers brief.
Experiment: reversal of MRP1-mediated doxorubicin resistance, pilot screen, H69AR cells, doxorubicin co-treatment (AID 601)
Details: H69AR cells + 2 uM doxorubicin, CellTiter-Glo, 72 h; at 10 µM; active compounds read high
Answers are plain numbers, in %.

// below: answered compounds
Compound: CC(=O)NC1(c2nnnn2CCOC(=O)Nc2ccc(Cl)cc2)CCCCC1
differential viability (reversal) (%): 13
--
Compound: CCn1c(SCC(=O)NCc2ccco2)nc2c(c1=O)SC(C)C2 (centres undefined)
differential viability (reversal) (%): -0.41
--
Compound: CCCCCC1CC(CC(=O)O)C(=O)O1 (centres undefined)
differential viability (reversal) (%): 7.44

Please look at the items below and tell me differential viability (reversal) for each one, in order.
1. CCOC(=O)CSc1nnc(-c2ccc(S(=O)(=O)N3CCOCC3)cc2)n1-c1ccccc1
2. S=C(N=Nc1ccccc1)NNc1ccccc1
3. O=c1[nH]c(N2CCc3ccccc32)nc2c1CCCC2
4. c1coc(-c2nnc(NC3=NCCC3)o2)c1
5. CCC(C)(C)NC(=O)C(OC(=O)c1ccco1)c1ccccc1OC (centres undefined)

(A)
[17.4, -6.66, 21.9, 11.4, 18.8]

Please supply differential viability (reversal) for each of the following items, keeping them in order.
1. CS(=O)(=O)N1CCCC(C(=O)NCc2ccccc2Cl)C1 (centres undefined)
2. CCCCNc1cc(C)oc(=O)c1C(C)=O

(A)
1: -4.79; 2: 7
